Would you kindly list TGI for each of these molecules?
Tested on: A549 NSCLC
assay.procedure: NCI tumour cell line growth inhibition, 48 h

Problem: Return value of TGI for input CCC(C)CC(C)CC(C)/C=C(\C)C1=C(C)CC(C)(O)O1 (stereo unspecified) , no commentary.
Solution: > 100 µM

Problem: Return value of TGI for input ClCc1ccccc1Cn1cnc2ncnc(Cl)c21 , no commentary.
Solution: 23.9 µM

Problem: Return value of TGI for input N#CC1=C(N)Oc2c(ccc3ccccc23)C1c1cc(=O)oc2ccc(Cl)cc12 (stereo unspecified) , no commentary.
Solution: > 100 µM

Problem: Return value of TGI for input Cc1ccc(C)c(N2C(=O)C(=O)C(c3nc4ccccc4o3)C(=O)C2=O)c1 , no commentary.
Solution: > 100 µM

Problem: Return value of TGI for input COC1CC(O)C(OC(=O)c2ccccc2)C(C)O1 (stereo unspecified) , no commentary.
Solution: > 100 µM

Problem: Return value of TGI for input Cc1cc(S(=O)(=O)/N=C(/NN)Nc2ccc(Cl)cc2)c(S)cc1Cl , no commentary.
Solution: 23.8 µM

Problem: Return value of TGI for input O=C(C(=O)n1ncc(Cl)c(Cl)c1=O)n1ncc(Cl)c(Cl)c1=O , no commentary.
Solution: > 100 µM

Problem: Return value of TGI for input O=C1/C(=C/c2cccc3ccccc23)CCc2ccc([N+](=O)[O-])cc21 , no commentary.
Solution: > 100 µM

Problem: Return value of TGI for input O=c1c2ccccc2nc2ccc3c(Cl)[nH][nH]c3c12 , no commentary.
Solution: > 100 µM

Problem: Return value of TGI for input COc1cccc(C2c3cc4c(cc3OC(Nc3ccccc3)C2C)OCO4)c1O (stereo unspecified) , no commentary.
Solution: 23.6 µM

Problem: Return value of TGI for input COC(=O)Nc1nc2ccccc2[nH]1 , no commentary.
Solution: > 100 µM

###

Consider the following GI50 values measured on U251 CNS.

Problem: Look up and report measured GI50 (U251 CNS) for the following compound: CCCCCCSSC(=S)N(CC)CC
Solution: 14.2 µM

Problem: Look up and report measured GI50 (U251 CNS) for the following compound: COc1ccc(C(=O)c2cc(C)c(OC)c(C)c2)c(OC)c1NC(C)=O
Solution: 0.353 µM

Problem: Look up and report measured GI50 (U251 CNS) for the following compound: CCCc1cc(=O)n2c(C(=O)Nc3ccc(F)cc3)c(C(=O)Nc3ccc(F)cc3)sc2n1
Solution: 16.3 µM

Problem: Look up and report measured GI50 (U251 CNS) for the following compound: Cc1cc(C)c(C#N)c(Sc2nc(C)c([N+](=O)[O-])c(C)c2C#N)n1
Solution: 3.1 µM

Problem: Look up and report measured GI50 (U251 CNS) for the following compound: c1ccc(OCCC[P+](c2ccccc2)(c2ccccc2)c2ccccc2)cc1
Solution: 1.63 µM

###

System: MDA-MB-435
assay.procedure: NCI tumour cell line growth inhibition, 48 h
parameter.measured: log10 TGI (log10 of the value in µM)
Give log10 of TGI, with TGI taken in µM.

Problem: Return value of log10 TGI for input c1ccc(OCCC[P+](c2ccccc2)(c2ccccc2)c2ccccc2)cc1 , no commentary.
Solution: 1.01

Problem: Return value of log10 TGI for input O=[N+]([O-])/C(C(Cl)=C(Cl)Cl)=C(/Nc1cccc2cccnc12)n1nnc2ccccc21 , no commentary.
Solution: 1.52

Problem: Return value of log10 TGI for input CCCCCCCCCCCCC(O)c1ccco1 (configuration not stated) , no commentary.
Solution: 1.55

Problem: Return value of log10 TGI for input CCOC1=C(c2ccccc2)N2CCCCC2O1 (configuration not stated) , no commentary.
Solution: 1.23

Problem: Return value of log10 TGI for input O=C(/C=C/C=C/c1ccccc1)c1ccco1 , no commentary.
Solution: 1.47

Problem: Return value of log10 TGI for input CCCCC#Cc1c(I)n(C)c(=O)[nH]c1=O , no commentary.
Solution: 0.59

Problem: Return value of log10 TGI for input COC(=O)Cn1cnc2c(Cl)nc(Nc3ccccc3)nc21 , no commentary.
Solution: 1.90

Problem: Return value of log10 TGI for input CC1(C)CC[C@]2(C(=O)O)CC[C@]3(C)[C@H](C(=O)C=C4[C@@]5(C)C=C(C#N)C(=O)C(C)(C)[C@@H]5CC[C@]43C)[C@@H]2C1 , no commentary.
Solution: 0.48

Problem: Return value of log10 TGI for input CCN(CC)CCCC(C)Nc1cc(-c2cccc(OC(F)(F)F)c2)nc2ccc(N3CCCC3)cc12 (configuration not stated) , no commentary.
Solution: -1.28
